- Target of assay: T1, adenosine A2A receptor, fused to one half of super yellow fluorescent protein (A2A-cYFP or A2A-nYFP), BiFC … (UniProt P29274 1-412)
- T1 construct: source: HEK-293T, transfected, in living cells
- T1 sequence (P29274 whole entry, the tested form may be a part): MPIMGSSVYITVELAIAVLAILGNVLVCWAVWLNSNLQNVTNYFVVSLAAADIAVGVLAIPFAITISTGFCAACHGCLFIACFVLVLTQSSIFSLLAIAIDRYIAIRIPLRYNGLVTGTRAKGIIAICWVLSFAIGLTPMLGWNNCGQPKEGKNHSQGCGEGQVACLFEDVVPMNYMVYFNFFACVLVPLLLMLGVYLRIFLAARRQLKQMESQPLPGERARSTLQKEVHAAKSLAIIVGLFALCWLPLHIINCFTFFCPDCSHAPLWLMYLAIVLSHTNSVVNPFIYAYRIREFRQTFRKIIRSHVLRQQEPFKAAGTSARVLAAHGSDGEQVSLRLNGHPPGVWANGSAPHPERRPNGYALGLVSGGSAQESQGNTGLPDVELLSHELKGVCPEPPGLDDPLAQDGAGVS
- Test method notes: split reporter (BiFC, NanoBiT); competition: HEK-293T cells expressing A2A-cYFP and A2A-nYFP treated with TM5 peptides 1 or 2 for 4 h before the complementation assay, in supplemented DMEM; dose-dependent loss of YFP fluorescence
- Test conditions: one partner purified
Ends that are not written are not given here.
Recorded endpoint: pIC50
pIC50 field: float, defined as -log10 of concentration (mol/L).

MNYMVYFNFFACVLVPLLLMLGVYLKRRRGRKKRRE (also: cyclic (mode of cyclisation not given here), also called TM5-cyclic Tat-like; cyclic version 2; source: synthetic peptide (Fmoc solid-phase synthesis, on-resin cyclization, purified by preparative HPLC)) [Peptide 2, cyclic Tat-like TM5]
6.46

The record that follows has no pIC50 shown yet.
Documented pIC50 of MNYMVYFNFFACVLVPLLLMLGVYLYGRKKRRQRRR-NH2 (TM5 helical domain of the adenosine A2A receptor (A2AR); also called linear TM5-Tat; linear peptide 1; source: synthetic peptide (Fmoc solid-phase synthesis, purified by preparative HPLC)) [Peptide 1, linear Tat-based TM5] : 6.28

From: paper PMC6801510
